System: CCRIS mutagenicity, Ames/micronucleus/aberration tests
Procedure text: CCRIS mutagenicity studies
Test parameters: Test System: AMES SALMONELLA TYPHIMURIUM; Strain/Indicator: TA2637; Metabolic Activation: RAT, LIVER, S-9, PHENOBARBITAL AND 5,6-BENZOFLAVONE; Method: PREINCUBATION
Calls of active or inactive are those of the source. No rule for the calls is given here.
Select the correct class. Options are True = active, False = inactive and nothing else.

See these solved cases before continuing.
1) COc1cc(OC)c2c(=O)c3c(O)ccc(OC)c3oc2c1 : True
2) Oc1ccc2c(O)cccc2c1 : True
3) O=C1C=C(S(=O)(=O)O)c2ccccc2C1=O : False
4) OC1c2ccccc2Oc2ccccc21 : False
5) Oc1ccc(O)c2ccccc12 : True

For O=C1C(Cl)=C(Cl)C(=O)C(Cl)=C1Cl , what call appears in the results of this test?
False

For O=c1c2cc(O)ccc2oc2cc(O)cc(O)c12 , what call appears in the results of this test?
True
